The values you see were collected from patent US20260125400A1.

target: TYK2 (Homo sapiens, UniProt P29597); construct: Degradation of TYK2 in cells was quantitatively measured using Meso Scale Discovery (MSD) technology; endogenous in cells; host or cells: OCI-LY10; assay: TYK2 MSD degradation in OCI-LY10 cells; format: cell-based; conditions: OCI-LY10 cells, 4 to 24 hours incubation, read-out: TYK2 MSD OCI-LY10 Rel-DC50
Sequence (P29597 whole entry): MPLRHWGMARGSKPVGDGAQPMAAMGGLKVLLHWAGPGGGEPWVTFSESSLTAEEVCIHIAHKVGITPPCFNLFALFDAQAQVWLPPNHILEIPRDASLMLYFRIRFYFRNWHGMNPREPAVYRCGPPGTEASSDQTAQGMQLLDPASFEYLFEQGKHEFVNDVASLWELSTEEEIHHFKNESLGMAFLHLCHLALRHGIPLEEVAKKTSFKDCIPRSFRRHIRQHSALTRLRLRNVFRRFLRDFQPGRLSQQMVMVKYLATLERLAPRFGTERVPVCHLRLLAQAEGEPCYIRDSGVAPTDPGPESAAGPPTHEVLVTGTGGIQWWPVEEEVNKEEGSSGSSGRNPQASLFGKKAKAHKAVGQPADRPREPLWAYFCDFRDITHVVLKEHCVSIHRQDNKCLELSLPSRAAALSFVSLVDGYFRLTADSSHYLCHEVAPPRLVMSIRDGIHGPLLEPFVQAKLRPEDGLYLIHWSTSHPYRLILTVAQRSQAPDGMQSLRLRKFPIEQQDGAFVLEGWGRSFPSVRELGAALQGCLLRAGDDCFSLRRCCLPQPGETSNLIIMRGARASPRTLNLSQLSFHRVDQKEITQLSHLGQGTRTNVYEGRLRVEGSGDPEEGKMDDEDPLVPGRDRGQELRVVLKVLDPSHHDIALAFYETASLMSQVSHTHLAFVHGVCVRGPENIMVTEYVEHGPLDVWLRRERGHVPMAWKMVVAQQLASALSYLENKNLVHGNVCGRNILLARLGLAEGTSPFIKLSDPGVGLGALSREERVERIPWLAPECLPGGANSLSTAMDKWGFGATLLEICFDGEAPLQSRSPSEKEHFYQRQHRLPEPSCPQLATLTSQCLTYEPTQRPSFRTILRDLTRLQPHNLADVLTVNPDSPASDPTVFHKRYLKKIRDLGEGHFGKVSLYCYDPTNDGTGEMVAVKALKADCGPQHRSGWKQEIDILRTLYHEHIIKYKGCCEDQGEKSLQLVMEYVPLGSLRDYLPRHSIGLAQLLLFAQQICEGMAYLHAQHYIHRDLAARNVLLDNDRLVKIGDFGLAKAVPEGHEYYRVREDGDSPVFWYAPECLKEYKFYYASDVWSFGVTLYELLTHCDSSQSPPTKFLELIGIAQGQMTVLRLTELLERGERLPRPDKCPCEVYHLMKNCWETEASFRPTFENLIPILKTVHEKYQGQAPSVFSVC
measured_endpoint: DC50

molecule	result
CNc1cc(N2CCc3c(CN4CCC(N5CC(N6CCN(c7cccc8c7n(C)c(=O)n8C7CCC(=O)NC7=O)CC6)C5)C(F)(F)C4)cccc32)nn2c(C(=O)N[C@@H]3C[C@@H]3F)cnc12 (stereo partly drawn)	< 1 nM
CNc1cc(N2CCc3c(CC4CN(C5CCN(C6CCN(C(=O)c7ccc(Cl)c(N8CCC(=O)NC8=O)c7)CC6)CC5(F)F)C4)cccc32)nn2c(C(=O)N[C@@H]3C[C@@H]3F)cnc12 (stereo partly drawn)	< 1 nM
CNc1cc(N2CCc3c(-c4ccc(CN5CCC6(CC5)CC(COc5ccc(C7CCC(=O)NC7=O)c(Cl)c5)C6)cn4)cccc32)nn2c(C(=O)N[C@@H]3C[C@@H]3F)cnc12 (stereo partly drawn)	> 100 nM

====

biological target: TYK2 (Homo sapiens, UniProt P29597); construct: Degradation of TYK2 in cells was quantitatively measured using Meso Scale Discovery (MSD) technology; endogenous in cells; host or cells: OCI-LY10; test: TYK2 MSD degradation in OCI-LY10 cells; type: cell-based; conditions: TYK2 degradation in OCI-LY10 cells, 4 to 24 hours incubation
measured_endpoint: TYK2 MSD OCI-LY10 Dmax %

molecule	measured_target	result
CNc1cc(N2CCc3c(N4CCC5(CCN(C(=O)c6ccc(Cl)c(N7CCC(=O)NC7=O)c6)CC5)CC4)cccc32)nn2c(C(=O)N[C@@H]3C[C@@H]3F)cnc12	TYK2 (Homo sapiens, UniProt P29597)	D (D (<50%))
CNc1cc(N2CCc3c(CN4CCC(N5CCC6(CCN(C(=O)c7cc(N8CCC(=O)NC8=O)c(Cl)cc7F)CC6)CC5)C(F)(F)C4)cccc32)nn2c(C(=O)N[C@@H]3C[C@@H]3F)cnc12 (some centres unmarked)	TYK2 (Homo sapiens, UniProt P29597)	A (A (>90%))
CNc1cc(N2CCc3c(-c4ncc(CN5CC6(CCN(C(=O)c7ccc(Cl)c(N8CCC(=O)NC8=O)c7)CC6(F)F)C5)cc4F)cccc32)nn2c(C(=O)N[C@@H]3CC[C@H]3OC)cnc12	TYK2 (Homo sapiens, UniProt P29597)	A (A (>90%))
CNc1cc(N2CC3(CCN(C4CCN(c5cccc6c5n(C)c(=O)n6C5CCC(=O)NC5=O)CC4)CC3)c3ccccc32)nn2c(C(=O)NC3CC3)cnc12 (centres unmarked)	TYK2 (Homo sapiens, UniProt P29597)	D (D (<50%))
CNc1cc(N2CCc3c(-c4ccc(CN5CC6(CCN(Cc7ccc(Cl)c(N8CCC(=O)NC8=O)c7)CC6(F)F)C5)cn4)cccc32)nn2c(C(=O)N[C@@H]3C[C@@H]3F)cnc12	TYK2 (Homo sapiens, UniProt P29597)	D (D (<50%))
CNc1cc(N2CCc3c(-c4ccc(CN5CCC6(CCN(C(=O)c7cc(C)c(Cl)c(N8CCC(=O)NC8=O)c7)CC6)C(F)(F)C5)cn4)cc(F)cc32)nn2c(C(=O)N[C@@H]3C[C@@H]3F)cnc12	TYK2 (Homo sapiens, UniProt P29597)	B (B (90 to >75%))
CNc1cc(N2CCc3c(-c4ncc(CN5CCC6(CCN(C(=O)c7cc(C)c(Cl)c(N8CCC(=O)NC8=O)c7)CC6)C(F)(F)C5)cc4F)cccc32)nn2c(C(=O)N[C@@H]3C[C@@H]3F)cnc12	TYK2 (Homo sapiens, UniProt P29597)	B (B (90 to >75%))
